The measurements presented in this section are drawn from patent US20210054097A1.

# Tested On: T1, FX activation peptide 12-mer AADLDPTENPFD (human)
# T1 peptide: AADLDPTENPFD-biotin
# Test Description: peptide ELISA
Ends that are not written are not given here.
Give measured ELISA signal relative to background for each item. Keep answers brief.
Answers are plain numbers.

Nb 702C12 (VHH, monovalent Nanobody; not shown: C-terminal FLAG3 and HIS6 tag) VHH: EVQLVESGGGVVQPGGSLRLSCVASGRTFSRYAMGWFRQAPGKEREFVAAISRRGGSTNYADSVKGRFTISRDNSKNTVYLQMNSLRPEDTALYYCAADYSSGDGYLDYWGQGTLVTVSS : 0.88

Here is another binder to look at.
query: Identify measured ELISA signal relative to background associated with Nb 729A04 (VHH, monovalent Nanobody; not shown: C-terminal FLAG3 and HIS6 tag) VHH: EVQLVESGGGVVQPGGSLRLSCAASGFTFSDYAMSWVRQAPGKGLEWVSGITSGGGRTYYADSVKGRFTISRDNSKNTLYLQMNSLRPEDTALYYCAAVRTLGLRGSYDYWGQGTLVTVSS
result: 1.05
